Form field: melting point (one value per entry).
endpoint.label: melting point

1) CC(C)=CCC(C(=O)O)C(=O)O ... 96 to 97 °C
2) c1ccc(COc2cccc3c2nc2n3CCCO2)cc1 ... 183 to 184 °C
3) COc1ccc(C(O)CSCc2ccncc2)cc1 (stereo not given) ... 70 to 72.5 °C
4) O=[N+]([O-])c1ccc2nc(-c3ccco3)[nH]c2c1 ... 228 to 229 °C
5) CCCc1nc(Cl)c(C(=O)O)n1Cc1ccc(C2(C(=O)OCC)CC=CC2)s1 ... 114 to 115 °C
6) NC(=O)C1CCc2[nH]c3ccc(F)c(Cl)c3c2C1 (stereo not given) ... 226 to 227 °C
7) COc1ccc(C(C)=NNc2ccc(C3=NNC(=O)CC3)cc2)cc1 ... 204 to 207 °C
8) CNC(=O)CCN1CCC(C(O)(c2ccc(F)cc2)c2ccc(F)cc2)CC1 ... 127 to 129 °C
9) COc1c(C)c(OC(=O)c2c(C)c(C)c(OCCCN3C(=O)c4ccccc4S3(O)O)c(C)c2OC)c(C)c(C)c1C(=O)O ... 222 to 223 °C
10) CCOC(=O)Cc1nsc(NC(=O)c2ccccc2)n1 ... 119 to 120 °C

###

endpoint.label: melting point

1) CC(=O)c1csc(-c2nc3n(c2-c2ccncc2)CCC3)c1 ... 152 to 154 °C
2) COc1ccc(C2c3ccccc3C(c3ccc4c(c3)OCO4)C2c2nnn[nH]2)cc1 (stereo not given) ... 155 to 157 °C
3) CCOC(=O)CCc1ccc(N2CCN(c3ccc(C(=N)NC(=O)OCC)cc3)C2=O)cc1 ... > 335 °C
4) Cc1cc(N(N)c2ccccc2)nc(N)n1 ... 173 to 174 °C
5) O=C(Nc1ccccn1)c1cnc2c(C(F)(F)F)cccc2c1O ... 335 to 336 °C
6) CC(C)Oc1c(Br)c(Br)n(Cc2ccccc2)c1C(=O)Nc1nnn[nH]1 ... 199 to 205 °C
7) Cc1ccc(S(=O)(=O)N(c2ccc(Cl)cc2C(=O)O)C(C)C)cc1 ... 175 to 176 °C
8) CC(C)(C)OC(=O)N1CCC(NCc2cccc(NC(=O)c3ccc(F)cc3Cl)n2)CC1 ... 79.1 °C
9) CCCCCN(CCC12CC3CC(CC(C3)C1)C2)C(=O)NCC(C)Cc1ccncc1 (stereo not given) ... 103 to 104 °C
10) COC1Nc2c(ccc(C)c2OC(C)=O)C(=O)N2CCCC12 (stereo not given) ... 147 to 150 °C
11) O=C(O)c1nc2n(n1)-c1ccccc1N(c1cccc(C(F)(F)F)c1)C2 ... 204 to 206 °C
12) COc1ccc(C2(O)CC=C(c3ccncc3)N(C)C2=O)cc1 (stereo not given) ... 224 to 226 °C
13) CCCCCCCCCCCCc1ccc(S(=O)(=O)Nc2nncs2)cc1 ... 126 to 127 °C
14) Cc1cc(-c2cnn3c(C(F)(F)F)cc(-c4ccc(C)c(C(F)(F)F)c4)nc23)cc(C)n1 ... 258 °C
15) Nc1ccc(CC2CCN(S(=O)(=O)c3ccccc3)CC2)cc1 ... 158 °C
16) OCC(CO)C1c2ccccc2-c2ccccc21 ... 101 °C
17) Cn1c(-c2ccc(Cl)cc2)cc2cc(C(=O)O)ccc21 ... > 260 °C
18) CN(C)CCOc1cccc(C=CC(=O)N2CCc3c([nH]c4ccccc34)C2c2ccc3c(c2)OCO3)c1 (stereo not given) ... 76 to 78 °C
19) S=C1Nc2ccccc2Sc2ccccc21 ... 245 to 246 °C
20) Nc1ccc(OC(F)(F)F)cc1C(=O)O ... 142 to 144 °C
